target: human MT2 receptor (Homo sapiens, UniProt P49286); construct: melatonin MT1 and MT2 receptors cDNA were individually subcloned into pcDNA3 and introduced into NIH-3T3 cells using Lipofectamine; expressed in transfected cells; assay: Melatonin receptor binding assay (MT2), 2-[125I]-iodomelatonin; settings: membrane homogenates of NIH-3T3 cells expressing MT2; 2-[125I]-iodomelatonin 0.2 nM; 37° C., 1 hour; read-out: MT2 IC50
Sequence (P49286 whole entry): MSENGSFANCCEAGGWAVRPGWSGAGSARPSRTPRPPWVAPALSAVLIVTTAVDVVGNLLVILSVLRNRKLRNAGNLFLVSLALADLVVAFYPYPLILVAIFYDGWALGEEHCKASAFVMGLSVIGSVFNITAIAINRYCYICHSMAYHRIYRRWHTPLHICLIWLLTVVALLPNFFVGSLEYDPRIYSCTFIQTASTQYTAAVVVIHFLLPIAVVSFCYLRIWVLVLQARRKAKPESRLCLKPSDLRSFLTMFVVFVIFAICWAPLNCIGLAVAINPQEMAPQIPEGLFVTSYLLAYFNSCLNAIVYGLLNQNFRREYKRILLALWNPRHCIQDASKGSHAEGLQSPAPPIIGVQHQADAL
measurement-kind: IC50

# annotated cases, reported IC50 shown
compound | experimental-target | IC50
COc1cc2c(cc1Br)CCN(C(C)=O)C2CC(c1ccccc1)c1ccccc1 (centres unmarked) | human MT2 receptor (Homo sapiens, UniProt P49286) | < 100 nM
COc1cc2c(cc1Br)CCN(C(=O)c1ccc([N+](=O)[O-])cc1)C2CC(c1ccccc1)c1ccccc1 (centres unmarked) | human MT2 receptor (Homo sapiens, UniProt P49286) | 100 to 1000 nM
COc1cc2c(cc1OC)C(CC(c1ccccc1)c1ccccc1)N(C(=O)C(F)(F)F)CC2 (centres unmarked) | human MT2 receptor (Homo sapiens, UniProt P49286) | 100 to 1000 nM
COC(=O)N1CCc2ccc(OC)cc2C1CCc1ccc(F)cc1 (centres unmarked) | human MT2 receptor (Homo sapiens, UniProt P49286) | < 100 nM
O=C(OCc1ccccc1)N1CCc2cc3c(cc2C1CCc1ccc(Cl)cc1)OCO3 (centres unmarked) | human MT2 receptor (Homo sapiens, UniProt P49286) | 100 to 1000 nM
COc1cc2c(cc1OC)C(CC1c3ccccc3-c3ccccc31)N(C(C)=O)CC2 (centres unmarked) | human MT2 receptor (Homo sapiens, UniProt P49286) | 100 to 1000 nM
COC(=O)N1CCc2cc(OC)c(OC)cc2C1CC(c1ccccc1)c1ccccc1 (centres unmarked) | human MT2 receptor (Homo sapiens, UniProt P49286) | < 100 nM
COc1cc2c(cc1OC)C(CCc1ccccc1)N(C(=O)Cc1ccccc1)CC2 (centres unmarked) | human MT2 receptor (Homo sapiens, UniProt P49286) | 100 to 1000 nM
COc1ccc2c(c1)C(CC(c1ccccc1)c1ccccc1)N(C(=O)c1ccc(C)cc1)CC2 (centres unmarked) | human MT2 receptor (Homo sapiens, UniProt P49286) | 100 to 1000 nM
COc1cc2c(cc1OC)C(CC(c1ccccc1)c1ccccc1)N(S(C)(=O)=O)CC2 (centres unmarked) | human MT2 receptor (Homo sapiens, UniProt P49286) | < 100 nM

// below: IC50 requested for another compound
Q: I am curious: what IC50 value has been reported for COc1cc2c(cc1OC)C(CCc1ccccc1)N(C(=O)c1cc(C(F)(F)F)cc(C(F)(F)F)c1)CC2 (centres unmarked) ?
A: 100 to 1000 nM

Data origin: patent US6908931B2
